System: blackgrass (Alopecurus myosuroides)
assayNotes: Test A postemergence
Format: in vivo
runConditions: Alopecurus myosuroides, post-emergence, 240 h, Postemergence, 31 g ai/ha; 0 is no effect, 100 is complete control; read-out: Blackgrass plant response rating (0 to 100 scale)
Excerpt: […]
Can you tell me pest or weed control at 31 g/ha for the items I'm about to list?
Just the number please, in %, no unit attached.

Case "CN1C[C@H](c2ccc(C(F)F)cc2)[C@@H](C(=O)Nc2cccnc2F)C1=O" , blackgrass (Alopecurus myosuroides), pest or weed control at 31 g/ha recorded as 0

Case "CN1C[C@H](c2ccc(F)c(Oc3ccccc3)c2)[C@@H](C(=O)Nc2cccc(F)c2F)C1=O" , blackgrass (Alopecurus myosuroides), pest or weed control at 31 g/ha recorded as 0

Case "CN1C[C@H](c2ccc3c(c2)OC(F)(F)O3)[C@@H](C(=O)Nc2ccc(F)nc2F)C1=O" , blackgrass (Alopecurus myosuroides), pest or weed control at 31 g/ha recorded as 0

Case "CN1C[C@H](c2ccc(Cl)c(F)c2)[C@@H](C(=O)Nc2ccc(F)c(F)c2F)C1=O" , blackgrass (Alopecurus myosuroides), pest or weed control at 31 g/ha recorded as 20

Case "CN1C[C@H](c2ccc(C(F)(F)F)cc2)[C@@H](C(=O)Nc2cccnc2F)C1=O" , blackgrass (Alopecurus myosuroides), pest or weed control at 31 g/ha recorded as 0

Case "O=C1NC[C@H](c2ccc(Cl)c(F)c2)[C@H]1C(=O)Nc1cccc(F)c1F" , blackgrass (Alopecurus myosuroides), pest or weed control at 31 g/ha recorded as 0

---

Can you tell me pest or weed control at 15.625 g/ha for the items I'm about to list?
System: giant foxtail (Setaria faberi)
assayNotes: Test G Pre-Emergence Protocol
Type: in vivo
runConditions: Setaria faberi, pre-emergence, 312 h, 15.625 g ai/ha, evaluated after 13 days, read-out: Foxtail, Giant damage rating (100=total damage to plant; 0=no damage to plant)
Just the number please, in %, no unit attached.

The compound CN1C[C@@H](c2ccc(C(F)(F)F)cc2)[C@H](C(=O)Nc2ccccc2C#N)C1=O (racemic) showed pest or weed control at 15.625 g/ha equal to 20

The compound CN1C[C@@H](c2ccc(C(F)(F)F)cc2)[C@H](C(=O)Nc2[nH]ncc2C#N)C1=O (racemic) showed pest or weed control at 15.625 g/ha equal to 0

The compound CCc1nnc(NC(=O)[C@@H]2C(=O)N(C)C[C@H]2c2ccc(C(F)(F)F)cc2)s1 (racemic) showed pest or weed control at 15.625 g/ha equal to 0

The compound CN1C[C@H](c2ccc(C(F)(F)F)cc2)[C@@H](C(=O)Nc2ccc[n+]([O-])c2C(F)(F)F)C1=O (racemic) showed pest or weed control at 15.625 g/ha equal to 0

The compound Cc1cccc(NC(=O)[C@H]2C(=O)N(C)C[C@@H]2c2ccc(C(F)(F)F)cc2)c1C#N (racemic) showed pest or weed control at 15.625 g/ha equal to 0

The compound CSc1nccc(NC(=O)[C@@H]2C(=O)N(C)C[C@H]2c2ccc(C(F)(F)F)cc2)n1 (racemic) showed pest or weed control at 15.625 g/ha equal to 0

The compound CCOc1cc(C2CN(C)C(=O)C2C(=O)Nc2cccc(F)c2F)ccc1Cl (centres unmarked) showed pest or weed control at 15.625 g/ha equal to 60

The compound CSc1ccncc1NC(=O)[C@H]1C(=O)N(C)C[C@@H]1c1cccc(C(F)(F)F)c1 (racemic) showed pest or weed control at 15.625 g/ha equal to 0

The compound CN1C[C@H](c2cccc(C(C)(C)C#N)c2)[C@@H](C(=O)Nc2cccc(F)c2F)C1=O (racemic) showed pest or weed control at 15.625 g/ha equal to 0

The compound COc1c(Cl)ccc([C@H]2CN(C)C(=O)[C@@H]2C(=O)Nc2cccc(F)n2)c1F (racemic) showed pest or weed control at 15.625 g/ha equal to 60

The compound COc1cc(F)cc(C2CN(C)C(=O)C2C(=O)Nc2cccc(F)c2F)c1 (centres unmarked) showed pest or weed control at 15.625 g/ha equal to 80

The compound CSc1ccncc1NC(=O)[C@H]1C(=O)N(C)C[C@@H]1c1ccc(C(F)(F)F)cc1 (racemic) showed pest or weed control at 15.625 g/ha equal to 0

The compound CN1C[C@H](c2ccc(C(F)(F)F)cc2)[C@@H](C(=O)Nc2cccc3nsnc23)C1=O (racemic) showed pest or weed control at 15.625 g/ha equal to 10

The compound CN1C[C@@H](c2ccc(C(F)(F)F)cc2)[C@H](C(=O)Nc2nccc(=O)[nH]2)C1=O (racemic) showed pest or weed control at 15.625 g/ha equal to 0

---

Tested on: barnyardgrass (Echinochloa crus-galli)
assayNotes: Test A postemergence
Format: in vivo
runConditions: Echinochloa crus-galli, post-emergence, 240 h, 125 g ai/ha, postemergence, visual injury vs untreated controls after approx. 10 d; 0 = no effect, 100 = complete control; read-out: Barnyardgrass plant response rating (0 to 100 scale)
metric: pest or weed control at 125 g/ha (%)
Just the number please, in %, no unit attached.

The molecule Cc1ccc([C@H]2CCN(C)C(=O)[C@@H]2C(=O)Nc2cccc(Cl)c2F)cc1 [Compound 1223] showed pest or weed control at 125 g/ha equal to 30

The molecule Cc1cc([C@H]2CN(C)C(=O)[C@@H]2C(=O)Nc2cccc(F)c2F)on1 [Compound 1196] showed pest or weed control at 125 g/ha equal to 70

The molecule O=C1NC[C@H](c2ccc(C(F)(F)F)cc2)C1C(=O)Nc1c(F)cccc1CO (stereo partly drawn) [Compound 1243] showed pest or weed control at 125 g/ha equal to 0

---

Can you tell me pest or weed control at 125 g/ha for the items I'm about to list?
System: blackgrass (Alopecurus myosuroides)
assayNotes: Test A postemergence
Format: in vivo
runConditions: Alopecurus myosuroides, post-emergence, 240 h, 125 g ai/ha, postemergence, visual injury vs untreated controls after approx. 10 d; 0 = no effect, 100 = complete control; read-out: Blackgrass plant response rating (0 to 100 scale)
Description: […]
Phrase the answer as number then unit, nothing more needed.

Case O=C1NC[C@H](c2ccc(Cl)c(F)c2)[C@H]1C(=O)Nc1cccc(F)c1F [Compound 1262] , blackgrass (Alopecurus myosuroides), pest or weed control at 125 g/ha recorded as 50%

Case Cc1cccc([C@H]2CN(C)C(=O)[C@@H]2C(=O)Nc2cccc(F)c2C)c1 [Compound 1233] , blackgrass (Alopecurus myosuroides), pest or weed control at 125 g/ha recorded as 0%

Case CON1CC[C@H](c2cccc(C(F)(F)F)c2)[C@@H](C(=O)Nc2ccc(F)c(F)c2F)C1=O [Compound 1170] , blackgrass (Alopecurus myosuroides), pest or weed control at 125 g/ha recorded as 20%

Case CN1C[C@H](c2cc(F)cc(C(F)(F)F)c2)[C@@H](C(=O)Nc2cccnc2F)C1=O [Compound 1176] , blackgrass (Alopecurus myosuroides), pest or weed control at 125 g/ha recorded as 70%

Case Cc1ccc([C@H]2CN(C)C(=O)[C@@H]2C(=O)Nc2cccc(C#N)c2F)cc1 [Compound 1188] , blackgrass (Alopecurus myosuroides), pest or weed control at 125 g/ha recorded as 70%

Case CN1CC[C@H](c2ccc(C(F)(F)F)cc2)[C@@H](C(=O)Nc2ccccc2C(F)(F)F)C1=O [Compound 1224] , blackgrass (Alopecurus myosuroides), pest or weed control at 125 g/ha recorded as 0%

Case O=C1NC[C@H](c2csc3c2CCC3)[C@H]1C(=O)Nc1cccc(F)c1F [Compound 1164] , blackgrass (Alopecurus myosuroides), pest or weed control at 125 g/ha recorded as 0%

Case CN1C[C@H](c2ccc(C#N)cc2)[C@@H](C(=O)Nc2ccc(F)c(F)c2F)C1=O [Compound 1229] , blackgrass (Alopecurus myosuroides), pest or weed control at 125 g/ha recorded as 0%

Case O=C1NC[C@H](c2ccc(F)c(Oc3ccccc3)c2)[C@H]1C(=O)Nc1cccc(F)c1F [Compound 1258] , blackgrass (Alopecurus myosuroides), pest or weed control at 125 g/ha recorded as 0%

Case CN1C[C@H](c2cccc(C(F)(F)F)c2)[C@@H](C(=O)Nc2ccc(F)cc2C(F)(F)F)C1=O [Compound 1250] , blackgrass (Alopecurus myosuroides), pest or weed control at 125 g/ha recorded as 20%

---

Tested on: giant foxtail (Setaria faberii)
assayNotes: Test A preemergence
Assay type: in vivo
runConditions: Setaria faberi, pre-emergence, 240 h, 500 g ai/ha, preemergence; 0 to 100 scale where 0 is no effect and 100 is complete control; read-out: Foxtail, Giant plant response rating
Each entry gets criterion not met if its pest or weed control at 500 g/ha stays under 90%, and criterion met if its pest or weed control at 500 g/ha is 90% or above.

Could you tell me if the measured pest or weed control at 500 g/ha of "Cc1nc([C@H]2CN(C)C(=O)[C@@H]2C(=O)Nc2ccccc2F)cs1" reaches 90% or more? criterion not met

Could you tell me if the measured pest or weed control at 500 g/ha of "CN1C[C@H](c2cscn2)[C@@H](C(=O)Nc2ccccc2F)C1=O" reaches 90% or more? criterion not met

Could you tell me if the measured pest or weed control at 500 g/ha of "N#Cc1cc([C@H]2CNC(=O)[C@@H]2C(=O)Nc2ccccc2F)ccc1F" reaches 90% or more? criterion met

Could you tell me if the measured pest or weed control at 500 g/ha of "O=C1NC[C@H](c2ccc3c(c2)OCO3)[C@H]1C(=O)Nc1cccc(F)c1C(F)(F)F" reaches 90% or more? criterion not met

Could you tell me if the measured pest or weed control at 500 g/ha of "Cc1cc([C@H]2CN(C)C(=O)[C@@H]2C(=O)Nc2ccccc2F)no1" reaches 90% or more? criterion not met
